// provenance: patent US10689377B2

Molecular target: KRas G12C (Homo sapiens, UniProt P01116, G12C)
Sequence (P01116 1-188 isoform P01116-2 G12C): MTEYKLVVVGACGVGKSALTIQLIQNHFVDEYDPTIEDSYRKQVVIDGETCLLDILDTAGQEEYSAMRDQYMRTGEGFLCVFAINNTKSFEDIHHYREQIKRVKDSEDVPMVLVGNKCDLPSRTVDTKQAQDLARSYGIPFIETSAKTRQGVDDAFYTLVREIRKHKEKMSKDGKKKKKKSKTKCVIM
Assay: Cellular inhibition of KRas G12C measured by Phospho-ERK in NCI-H358 cells
Format: cell-based
Details: pERK(Thr202/Tyr204) normalized with GAPDH, NCI-H358 cells, 3 hours; read-out: IC50
measured.parameter: IC50

molecule | measured.parameter | assay.result
C=CC(=O)N1CCN(c2nc(N3CCN(C)CC3)nc3c2CCN(c2cc(O)cc4ccccc24)C3)CC1 [Example 12] | IC50 | > 1000 nM

Count: 2. Required value per item: IC50.
1. C=CC(=O)N1CCN(c2nc(OC[C@H]3C[C@H](O)CN3C)nc3c2CCN(c2cccc4ccccc24)C3)C[C@@H]1CC#N [Example 323]
2. C=C(F)C(=O)N1CCN(c2nc(OC[C@@H]3CCCN3C)nc3c2CCN(c2cncc4ccc(C)cc24)C3)C[C@@H]1CC#N [Example 607]

Ans.
1. 0.1 to 1000 nM
2. 0.1 to 1000 nM
